experimentalTarget: MtDHFR (Mycobacterium tuberculosis)
Sequence (P9WNX1 whole entry): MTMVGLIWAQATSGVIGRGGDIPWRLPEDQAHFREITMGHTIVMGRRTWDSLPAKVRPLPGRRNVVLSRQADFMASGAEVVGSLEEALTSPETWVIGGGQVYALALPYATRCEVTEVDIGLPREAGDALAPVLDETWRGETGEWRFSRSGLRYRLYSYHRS
Kindly supply the reported pIC50 values for the records listed here.
Answers are plain numbers, as −log10 of the molar value.

Look over these answered cases.
INPUT: Give reported pIC50 value for Cc1ccc(CC(=O)NNC(=O)c2ccc(-n3c(C)ccc3C)cc2)cc1 [Compound 5c]
OUTPUT: 3.93

INPUT: Give reported pIC50 value for Cc1ccc(C)n1-c1ccc(C(=O)NNC(=O)Cc2ccccc2)cc1 [Compound 5a]
OUTPUT: 3.84

INPUT: Give reported pIC50 value for COc1ccc(CC(=O)NNC(=O)c2ccc(-n3c(C)ccc3C)cc2)cc1 [Compound 5d]
OUTPUT: 4.07

INPUT: Give reported pIC50 value for Cc1ccc(C)n1-c1ccc(C(=O)NNC(=O)Cc2cccc(Br)c2)cc1 [Compound 5m]
OUTPUT: 4.74

INPUT: Give reported pIC50 value for Cc1ccc(C)n1-c1ccc(C(=O)NNC(=O)Cc2cccc(Cl)c2)cc1 [Compound 5h]
OUTPUT: 4.52

INPUT: Give reported pIC50 value for Cc1ccc(C)n1-c1ccc(C(=O)NNC(=O)Cc2ccc([N+](=O)[O-])cc2)cc1 [Compound 5n]
OUTPUT: 4.82

INPUT: Give reported pIC50 value for Cc1ccc(C)n1-c1ccc(C(=O)NNC(=O)Cc2ccccc2Br)cc1 [Compound 5j]
OUTPUT: 4.82

INPUT: Give reported pIC50 value for Cc1ccc(C)n1-c1ccc(C(=O)NNC(=O)Cc2ccc(Br)cc2)cc1 [Compound 5i]
OUTPUT: 4.74

Proceed to the following item.
INPUT: Give reported pIC50 value for Cc1ccc(C)n1-c1ccc(C(=O)NNC(=O)Cc2ccc(Cl)cc2)cc1 [Compound 5f]
OUTPUT: 4.60

###

System: A549 (lung adenocarcinoma) cell lines
testMethodNotes: MTT-based cytotoxicity
Assay type: cell-based, human
measuredParameter: IC50

INPUT: # lookup: A549 (lung adenocarcinoma) cell lines IC50, key = NNC(=O)c1ccncc1 [INH, reference compound]
OUTPUT: > 450 µM

###

testMethodNotes: MTT-based cytotoxicity
Format: cell-based
testSettings: African green monkey; MTT assay, Mammalian Vero cell lines, means ± SEM of three independent experiments; read-out: IC50 MV Cell Lines (cytotoxicity)
Procedure: Cellular conversion of MTT (3-(4,5-dimethylthiazo-2-yl)-2,5-diphenyl-tetrazolium bromide) into a formazan product was performed to evaluate the cytotoxic activity (IC50) of some of the compounds against A549 (lung adenocarcinoma) MV cell lines up to a concentration of […] using a Promega Cell Titer 96 non-radioactive cell proliferation assay with cisplatin as the positive control. The IC50 values given in Table 6 are the averages ± SEM of three independent measurements.
Kindly supply the reported IC50 values for the records listed here.
Give bare numbers, in µM.

INPUT: Give reported IC50 value for Cc1ccc(C)n1-c1ccc(C(=O)NNC(=O)Cc2ccc(Br)cc2)cc1
OUTPUT: 218

INPUT: Give reported IC50 value for Cc1ccc(CC(=O)NNC(=O)c2ccc(-n3c(C)ccc3C)cc2)cc1
OUTPUT: 221

INPUT: Give reported IC50 value for Cc1ccc(C)n1-c1ccc(C(=O)NNC(=O)Cc2ccc(F)cc2)cc1
OUTPUT: 221

More entries:
INPUT: Give reported IC50 value for COc1ccc(CC(=O)NNC(=O)c2ccc(-n3c(C)ccc3C)cc2)cc1
OUTPUT: 214
